test.system: HIV-1 pseudovirus X1193_c1 (HIV-1)
protocol.text: cell-based or functional assay
Can you tell me IC80 (neutralization in TZM.bl cells) for the items I'm about to list?
Give bare numbers, in µg/mL.

Worked set:
MS-80 (antibody, V domains shown) VH: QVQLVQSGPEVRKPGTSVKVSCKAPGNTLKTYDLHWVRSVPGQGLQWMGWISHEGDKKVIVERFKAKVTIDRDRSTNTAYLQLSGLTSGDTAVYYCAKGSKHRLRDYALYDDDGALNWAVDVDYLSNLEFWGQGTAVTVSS VL: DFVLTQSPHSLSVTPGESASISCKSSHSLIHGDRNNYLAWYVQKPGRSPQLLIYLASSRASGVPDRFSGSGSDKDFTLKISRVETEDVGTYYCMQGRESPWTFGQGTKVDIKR	0.607
MS-74 (antibody, V domains shown) VH: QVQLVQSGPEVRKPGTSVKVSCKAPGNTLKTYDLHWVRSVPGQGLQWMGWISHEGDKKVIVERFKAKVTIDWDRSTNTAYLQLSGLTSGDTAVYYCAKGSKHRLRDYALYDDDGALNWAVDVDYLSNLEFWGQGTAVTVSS VL: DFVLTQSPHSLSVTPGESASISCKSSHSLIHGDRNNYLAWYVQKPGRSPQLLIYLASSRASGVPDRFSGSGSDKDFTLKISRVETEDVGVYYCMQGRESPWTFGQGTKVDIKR	0.296

Return IC80 (neutralization in TZM.bl cells) for the following binder: MS-81 (antibody, V domains shown) VH: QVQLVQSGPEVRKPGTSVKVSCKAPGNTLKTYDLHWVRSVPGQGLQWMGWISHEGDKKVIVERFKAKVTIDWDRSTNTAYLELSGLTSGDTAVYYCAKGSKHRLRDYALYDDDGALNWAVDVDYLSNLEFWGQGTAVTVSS VL: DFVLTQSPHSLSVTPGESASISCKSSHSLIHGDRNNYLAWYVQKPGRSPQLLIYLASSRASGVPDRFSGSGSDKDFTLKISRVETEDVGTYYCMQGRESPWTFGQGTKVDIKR 0.512
